targetUnderTest: Serine/threonine-protein kinase N2 (Homo sapiens)
Sequence (Q16513 whole entry): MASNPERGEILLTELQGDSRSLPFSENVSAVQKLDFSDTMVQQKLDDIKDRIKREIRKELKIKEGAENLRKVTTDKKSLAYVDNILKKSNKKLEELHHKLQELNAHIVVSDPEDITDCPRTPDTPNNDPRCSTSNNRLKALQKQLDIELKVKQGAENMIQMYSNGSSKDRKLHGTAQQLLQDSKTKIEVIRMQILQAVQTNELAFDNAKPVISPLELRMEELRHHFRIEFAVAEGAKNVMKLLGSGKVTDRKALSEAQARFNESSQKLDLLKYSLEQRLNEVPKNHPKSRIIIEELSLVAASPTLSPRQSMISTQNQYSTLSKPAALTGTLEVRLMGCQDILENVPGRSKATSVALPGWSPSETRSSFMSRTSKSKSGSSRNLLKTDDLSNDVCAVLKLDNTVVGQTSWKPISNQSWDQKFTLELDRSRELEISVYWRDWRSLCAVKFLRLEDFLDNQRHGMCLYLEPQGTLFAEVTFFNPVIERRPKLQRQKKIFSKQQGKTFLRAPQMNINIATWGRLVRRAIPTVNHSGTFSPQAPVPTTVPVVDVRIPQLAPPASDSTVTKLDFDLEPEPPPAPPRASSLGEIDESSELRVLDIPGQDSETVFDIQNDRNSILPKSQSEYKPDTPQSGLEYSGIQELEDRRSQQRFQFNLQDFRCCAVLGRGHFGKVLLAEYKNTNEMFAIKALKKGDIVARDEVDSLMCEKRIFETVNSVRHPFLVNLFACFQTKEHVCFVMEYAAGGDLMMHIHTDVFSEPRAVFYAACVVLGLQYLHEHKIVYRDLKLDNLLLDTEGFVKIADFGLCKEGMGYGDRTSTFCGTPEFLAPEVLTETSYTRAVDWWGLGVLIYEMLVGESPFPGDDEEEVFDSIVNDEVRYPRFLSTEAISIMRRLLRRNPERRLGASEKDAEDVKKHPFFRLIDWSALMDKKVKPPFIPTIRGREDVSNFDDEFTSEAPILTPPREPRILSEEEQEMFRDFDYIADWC
pIC50: −log10 of the molar value.
endpointLabel: pIC50

For COc1cc(O)c2c(c1)CCCC(=O)C(=O)C(O)CCC[C@H](C)OC2=O (stereo partly specified) on Serine/threonine-protein kinase N2 (Homo sapiens), measured pIC50 was < 5.00

====

targetUnderTest: UniProtKB P54764
Sequence (P54764 whole entry): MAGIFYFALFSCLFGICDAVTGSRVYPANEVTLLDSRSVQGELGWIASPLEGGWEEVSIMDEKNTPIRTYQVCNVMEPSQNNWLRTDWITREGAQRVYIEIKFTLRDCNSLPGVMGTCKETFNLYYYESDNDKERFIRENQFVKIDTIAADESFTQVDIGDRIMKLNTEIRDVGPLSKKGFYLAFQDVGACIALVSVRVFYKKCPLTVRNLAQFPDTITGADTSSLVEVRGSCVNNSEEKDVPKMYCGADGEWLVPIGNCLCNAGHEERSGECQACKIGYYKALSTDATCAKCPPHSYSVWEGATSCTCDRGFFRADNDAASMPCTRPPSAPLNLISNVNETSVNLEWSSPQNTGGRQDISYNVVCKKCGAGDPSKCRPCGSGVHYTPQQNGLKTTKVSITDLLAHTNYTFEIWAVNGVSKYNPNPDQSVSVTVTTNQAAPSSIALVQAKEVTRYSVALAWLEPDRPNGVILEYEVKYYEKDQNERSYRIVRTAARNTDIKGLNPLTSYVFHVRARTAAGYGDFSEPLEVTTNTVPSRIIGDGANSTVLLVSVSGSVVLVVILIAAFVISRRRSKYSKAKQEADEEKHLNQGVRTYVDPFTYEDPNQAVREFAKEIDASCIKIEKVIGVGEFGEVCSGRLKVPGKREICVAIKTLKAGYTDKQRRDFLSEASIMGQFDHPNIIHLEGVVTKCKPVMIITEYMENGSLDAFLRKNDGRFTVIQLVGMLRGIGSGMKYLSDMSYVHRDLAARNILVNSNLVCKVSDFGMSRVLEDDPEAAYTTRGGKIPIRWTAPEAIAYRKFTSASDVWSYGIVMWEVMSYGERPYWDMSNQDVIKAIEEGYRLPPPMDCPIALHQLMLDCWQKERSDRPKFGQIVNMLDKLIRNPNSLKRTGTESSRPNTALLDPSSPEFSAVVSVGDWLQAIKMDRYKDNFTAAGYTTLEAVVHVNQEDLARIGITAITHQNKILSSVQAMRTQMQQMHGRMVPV
endpointLabel: IC50

For COc1cc(O)c2c(c1)CCCC(=O)C(=O)C(O)CCC[C@H](C)OC2=O (stereo partly drawn) [L-783277] on UniProtKB P54764, measured IC50 was > 10 µM

====

targetUnderTest: UniProt:P08069
Sequence (P08069 31-736 limits assumed): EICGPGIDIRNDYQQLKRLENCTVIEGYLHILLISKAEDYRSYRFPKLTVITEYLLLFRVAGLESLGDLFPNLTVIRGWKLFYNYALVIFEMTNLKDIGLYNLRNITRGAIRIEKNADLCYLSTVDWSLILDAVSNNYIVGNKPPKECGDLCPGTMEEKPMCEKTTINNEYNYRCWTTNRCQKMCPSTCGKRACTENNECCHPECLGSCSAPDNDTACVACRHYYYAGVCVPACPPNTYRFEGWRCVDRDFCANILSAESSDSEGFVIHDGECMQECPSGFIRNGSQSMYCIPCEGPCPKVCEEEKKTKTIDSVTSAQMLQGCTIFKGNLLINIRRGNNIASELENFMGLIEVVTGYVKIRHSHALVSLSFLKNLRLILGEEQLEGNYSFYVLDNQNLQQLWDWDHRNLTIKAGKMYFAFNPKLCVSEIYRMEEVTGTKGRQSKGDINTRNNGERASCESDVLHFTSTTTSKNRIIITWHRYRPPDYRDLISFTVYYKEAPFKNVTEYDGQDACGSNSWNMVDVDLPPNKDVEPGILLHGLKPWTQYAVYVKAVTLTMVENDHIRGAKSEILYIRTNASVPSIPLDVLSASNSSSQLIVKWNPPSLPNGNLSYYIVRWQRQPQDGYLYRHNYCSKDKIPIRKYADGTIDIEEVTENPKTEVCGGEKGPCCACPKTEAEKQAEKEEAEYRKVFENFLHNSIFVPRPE
Sequence (P08069 741-1367 limits assumed): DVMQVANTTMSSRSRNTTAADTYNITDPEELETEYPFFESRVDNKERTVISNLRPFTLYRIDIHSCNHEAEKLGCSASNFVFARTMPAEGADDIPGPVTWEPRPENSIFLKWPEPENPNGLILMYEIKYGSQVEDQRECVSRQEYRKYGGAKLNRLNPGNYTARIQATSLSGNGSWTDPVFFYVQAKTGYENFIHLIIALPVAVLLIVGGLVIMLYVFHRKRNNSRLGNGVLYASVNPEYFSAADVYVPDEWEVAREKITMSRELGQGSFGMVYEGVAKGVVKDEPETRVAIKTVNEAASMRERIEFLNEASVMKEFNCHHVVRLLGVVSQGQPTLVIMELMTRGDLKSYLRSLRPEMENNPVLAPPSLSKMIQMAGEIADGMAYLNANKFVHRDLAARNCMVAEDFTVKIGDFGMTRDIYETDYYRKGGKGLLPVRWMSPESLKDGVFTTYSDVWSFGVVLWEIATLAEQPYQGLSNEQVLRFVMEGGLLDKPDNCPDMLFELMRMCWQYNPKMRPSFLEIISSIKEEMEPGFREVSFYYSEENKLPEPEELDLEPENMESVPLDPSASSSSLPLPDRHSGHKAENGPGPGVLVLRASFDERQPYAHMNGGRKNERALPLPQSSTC
pIC50: −log10 of the molar value.
endpointLabel: pIC50

// pIC50 lookup, compound = COc1cc(O)c2c(c1)CCCC(=O)C(=O)C(O)CCC[C@H](C)OC2=O (stereo partly specified) , result: < 5.00
